ASSAY OVERVIEW: Toxicity liver stage against HepG2, at 10uM
Assay type: cell-based
Set-up: test concentration 10 uM, cell line HepG2-A16-CD81EGFP
STATED CONDITIONS: human, HepG2-A16-CD81EGFP cells; read-out: INHIBITION
Attribute: cytotoxicity at 10 µM
A number alone suffices; assume %.

>  <COMPOUND>
Cc1cc(C)c(CNC(=O)NC2CCOCC2)c(=O)[nH]1

>  <cytotoxicity at 10 µM / %>
-7.05

$$$$
>  <COMPOUND>
COc1cc(C2SCC(=O)Nc3n[nH]cc32)cc(OC)c1O (stereo unspecified)

>  <cytotoxicity at 10 µM / %>
7.85

$$$$
>  <COMPOUND>
Cn1c(CN2CCCC2)nnc1C1CCCN(C(=O)N2CCOCC2)C1 (stereo unspecified)

>  <cytotoxicity at 10 µM / %>
-0.193

$$$$
>  <COMPOUND>
NS(=O)(=O)N1CCc2ccc(NC(=O)CC(F)(F)F)cc21

>  <cytotoxicity at 10 µM / %>
6.15

$$$$
>  <COMPOUND>
CC(Cn1cccn1)NCc1csc(-c2ccc3c(c2)OCO3)n1 (stereo unspecified)

>  <cytotoxicity at 10 µM / %>
-26

$$$$
>  <COMPOUND>
COC(=O)c1cccn1C1CCN(Cc2cccnc2)CC1

>  <cytotoxicity at 10 µM / %>
-25.6

$$$$
>  <COMPOUND>
COc1ccnc(CNc2nc(C)nc(C)c2C)c1

>  <cytotoxicity at 10 µM / %>
-1.7

$$$$
>  <COMPOUND>
CC(C)N1[C@H](Cn2cccn2)C[C@@H]2CN(C3CCOCC3)CC[C@@H]21

>  <cytotoxicity at 10 µM / %>
3.92

$$$$

Request the reported cytotoxicity at 10 µM associated with `Cc1cnc(N2CC[C@@H]3O[C@H](COCc4ccccn4)CC[C@@H]32)nc1`
-76.3

Request the reported cytotoxicity at 10 µM associated with Cc1nn(C)c(N2CCOCC2)c1CNC(C)c1cccnc1 (stereo unspecified)
-13.6

Request the reported cytotoxicity at 10 µM associated with `O=C(c1cc2c(s1)CCCCC2)N1CCC(c2ncc[nH]2)CC1`
15.7

###

Attribute: cytotoxicity at 10 µM
ASSAY OVERVIEW: Toxicity liver stage against HepG2, at 10uM
Assay type: cell-based
Parameters: test concentration 10 uM, cell line HepG2-A16-CD81EGFP
STATED CONDITIONS: human, HepG2-A16-CD81EGFP cells; read-out: INHIBITION
A number alone suffices; assume %.

>  <MOLECULE>
Cc1ccc(C)c(C(NC(=O)C(C)(C)C)c2cccnc2)c1 (stereo not given)

>  <QUANTITATIVE RESULT>
-3.7

$$$$
>  <MOLECULE>
CCn1nc(C)c(CNC(=O)c2nnc3ccc(Cl)cc3n2)c1C

>  <QUANTITATIVE RESULT>
8.1

$$$$
>  <MOLECULE>
COC(=O)N1CC(C)=C(C)CN1C(=O)Nc1ccc(Cl)cc1

>  <QUANTITATIVE RESULT>
-7.97

$$$$
>  <MOLECULE>
CCOCc1cnc2n1CCN(C(=O)c1cn(C)c3ccccc13)C2C (stereo not given)

>  <QUANTITATIVE RESULT>
-108

$$$$
>  <MOLECULE>
NC(=O)C1CCN(S(=O)(=O)c2cnn(-c3ccccc3)c2)CC1

>  <QUANTITATIVE RESULT>
8.51

$$$$

Request the reported cytotoxicity at 10 µM associated with `CN1CCC(C(=O)N2CCC(c3ccc4c(N)n[nH]c4n3)CC2)CC1`
2.43

Request the reported cytotoxicity at 10 µM associated with COc1ccc(NC(C)C(=O)N2CCN(Cc3ccccc3)CC2)cn1 (stereo not given)
1.26

Request the reported cytotoxicity at 10 µM associated with `COC(=O)c1cccc(S(=O)(=O)NCc2cccnc2N(C)C)c1`
5.68

Request the reported cytotoxicity at 10 µM associated with `Cc1ccc(C)c(NC(=O)Cn2nc(C)c(C#N)c2N)c1`
-4.57

###

ASSAY OVERVIEW: Toxicity liver stage against HepG2, at 10uM
Type: cell-based
Set-up: test concentration 10 uM, cell line HepG2-A16-CD81EGFP
STATED CONDITIONS: human, HepG2-A16-CD81EGFP cells; read-out: INHIBITION
Attribute: cytotoxicity at 10 µM
A number alone suffices; assume %.

# annotated cases, reported cytotoxicity at 10 µM shown
>  <COMPOUND>
CCOc1ccc(C(=O)CCC(=O)N(C)Cc2cnccn2)cc1C

>  <cytotoxicity at 10 µM / %>
1.39

$$$$
>  <COMPOUND>
CN(CCS(=O)(=O)c1cc(Cl)ccc1Cl)CC(=O)Nc1cccc(F)c1

>  <cytotoxicity at 10 µM / %>
13.9

$$$$
>  <COMPOUND>
Cc1cc(C)c(CNC(=O)NCc2ccncc2)c(=O)[nH]1

>  <cytotoxicity at 10 µM / %>
-5.59

$$$$

Request the reported cytotoxicity at 10 µM associated with `COc1ncccc1-c1nc(-c2ccccn2)nn1C1CCN(C)CC1`
-4.52

Request the reported cytotoxicity at 10 µM associated with COc1ncccc1CN1Cc2nccn2CC(CN2CCCC2)C1 (stereo unspecified)
-103

###

ASSAY OVERVIEW: Toxicity liver stage against HepG2, at 10uM
Type: cell-based
Design: test concentration 10 uM, cell line HepG2-A16-CD81EGFP
STATED CONDITIONS: human, HepG2-A16-CD81EGFP cells; read-out: INHIBITION
OUTCOME MEASURE: cytotoxicity at 10 µM (%)
A number alone suffices; assume %.

# annotated cases, reported cytotoxicity at 10 µM shown
>  <COMPOUND>
Cc1c(C(=O)N2CCN(C)[C@@H]3CS(=O)(=O)C[C@@H]32)[nH]c2ccc(F)cc12

>  <READOUT UNIT>
%

>  <cytotoxicity at 10 µM>
-9.2

$$$$
>  <COMPOUND>
CC1(c2ccccc2)CCC(=O)N(CC2(N3CCOCC3)CCCC2)C1 (stereo not drawn)

>  <READOUT UNIT>
%

>  <cytotoxicity at 10 µM>
8.8

$$$$
>  <COMPOUND>
O=C(Cc1ccccc1Cl)N1CCCC(n2cncn2)C1 (stereo not drawn)

>  <READOUT UNIT>
%

>  <cytotoxicity at 10 µM>
-11.1

$$$$

Next compound, cytotoxicity at 10 µM to be filled in.
Request the reported cytotoxicity at 10 µM associated with `Cc1oc(C(=O)O)cc1S(=O)(=O)Nc1cc(Cl)ccc1F`
-12

###

ASSAY OVERVIEW: Toxicity liver stage against HepG2, at 10uM
Assay type: cell-based
Set-up: test concentration 10 uM, cell line HepG2-A16-CD81EGFP
STATED CONDITIONS: human, HepG2-A16-CD81EGFP cells; read-out: INHIBITION
Attribute: cytotoxicity at 10 µM
A number alone suffices; assume %.

# annotated cases, reported cytotoxicity at 10 µM shown
>  <MOLECULE>
CN(C(=O)c1cn(C)cn1)[C@@H]1CCC[C@@H](Oc2ccccc2)[C@@H]1O

>  <READOUT UNIT>
%

>  <cytotoxicity at 10 µM>
23

$$$$
>  <MOLECULE>
Cc1noc(CCCC(=O)N2CCCCC2CNS(C)(=O)=O)n1 (stereo unspecified)

>  <READOUT UNIT>
%

>  <cytotoxicity at 10 µM>
-0.88

$$$$
>  <MOLECULE>
Cc1ccc(CCNc2nccc(-c3cc(C(=O)O)ccn3)n2)o1

>  <READOUT UNIT>
%

>  <cytotoxicity at 10 µM>
-2.86

$$$$
>  <MOLECULE>
CCn1ccnc1CN(C)C1CCCN(CCCc2ccccc2)C1 (stereo unspecified)

>  <READOUT UNIT>
%

>  <cytotoxicity at 10 µM>
7.35

$$$$

Request the reported cytotoxicity at 10 µM associated with `CN(C)C(=O)Cc1ccccc1NCc1cccc2cccnc12`
-1.81

Request the reported cytotoxicity at 10 µM associated with Cc1nc(COc2ccc(OC(C)C(N)=O)cc2)oc1C (stereo unspecified)
-1.65

###

ASSAY OVERVIEW: Toxicity liver stage against HepG2, at 10uM
Format: cell-based
Parameters: test concentration 10 uM, cell line HepG2-A16-CD81EGFP
STATED CONDITIONS: human, HepG2-A16-CD81EGFP cells; read-out: INHIBITION
OUTCOME MEASURE: cytotoxicity at 10 µM (%)
A number alone suffices; assume %.

>  <MOLECULE>
Cc1nc(CN(CCS(C)(=O)=O)C(C)C)cs1

>  <cytotoxicity at 10 µM / %>
-44.2

$$$$
>  <MOLECULE>
Cc1noc(CN2CCC(c3ccnn3CCO)CC2)n1

>  <cytotoxicity at 10 µM / %>
-9.62

$$$$
>  <MOLECULE>
COc1ncccc1CN1CCC2(CC1)CN(c1ccccn1)CCO2

>  <cytotoxicity at 10 µM / %>
-6.6

$$$$
>  <MOLECULE>
O=C(O)C1(Oc2cccc(F)c2)CCN(C2CCOCC2)CC1

>  <cytotoxicity at 10 µM / %>
-7.16

$$$$
>  <MOLECULE>
CN1CCC(c2cncc(Cl)n2)CC1

>  <cytotoxicity at 10 µM / %>
0.752

$$$$
>  <MOLECULE>
CSc1nsc(NC(=O)N2CCc3ccccc3C2)n1

>  <cytotoxicity at 10 µM / %>
11.3

$$$$
>  <MOLECULE>
CN(CC(=O)N(C)C1CCCCC1)C1CCc2ccccc21 (centres undefined)

>  <cytotoxicity at 10 µM / %>
-7.44

$$$$
>  <MOLECULE>
CNC(=O)[C@H]1C[C@@H]2CN(C(=O)c3ccc(C)nc3)C[C@@H]2N1C(C)C

>  <cytotoxicity at 10 µM / %>
-116

$$$$

Request the reported cytotoxicity at 10 µM associated with `CC(C)N(C)C[C@H]1C[C@@H]2CN(Cc3ccco3)C[C@@H]2O1`
-4.22

Request the reported cytotoxicity at 10 µM associated with `O=C(NCc1cccnc1)N1CCn2c(Cn3cccn3)cnc2C1`
-71.1

Request the reported cytotoxicity at 10 µM associated with `CN(C)CCn1ccc2ccc(NC(=O)c3ccncc3F)cc21`
-1.53

Request the reported cytotoxicity at 10 µM associated with `CC(C)c1ncc2c(n1)CN(CC(=O)Nc1ccc(Cl)cn1)CC2`
-1.4

Data origin: ChEMBL document CHEMBL4513216
